- Protocol: refractive index (Na D-line) (dimensionless); xn = mol fraction of the nth substance listed
- Settings: 303.15 K; 101 kPa; Liquid; Standard Abbe refractometry; x1 = 0.25
Numbers after ± are expanded uncertainties.
Readout Type: refractive index

molecule="C=C[Si](C)(C)O[Si](C)(C)C=C [1,3-diethenyl-1,1,3,3-tetramethyldisiloxane] + Clc1ccccc1" assay_result="1.47349 ± 0.00032"
molecule="C=C[Si](C)(C)O[Si](C)(C)C=C [1,3-diethenyl-1,1,3,3-tetramethyldisiloxane] + Fc1ccccc1" assay_result="1.43708 ± 0.00032"
molecule="C=C[Si](C)(C)O[Si](C)(C)C=C [1,3-diethenyl-1,1,3,3-tetramethyldisiloxane] + O=[N+]([O-])c1ccccc1" assay_result="1.49265 ± 0.00032"
molecule="C=C[Si](C)(C)O[Si](C)(C)C=C [1,3-diethenyl-1,1,3,3-tetramethyldisiloxane] + CCc1ccccc1" assay_result="1.45934 ± 0.00032"

###

- Protocol: xn = mol fraction of the nth substance listed
- Settings: 283.15 K; 101 kPa; Liquid; Vibrating tube method; x1 = 0.15
Readout Type: mass density (kg/m3)

compound="C=C[Si](C)(C)O[Si](C)(C)C=C [1,3-diethenyl-1,1,3,3-tetramethyldisiloxane] + Clc1ccccc1" readout_type="mass density" measurement_unit=kg/m3 assay_result=1038.61
compound="C=C[Si](C)(C)O[Si](C)(C)C=C [1,3-diethenyl-1,1,3,3-tetramethyldisiloxane] + COc1ccccc1" readout_type="mass density" measurement_unit=kg/m3 assay_result=958.3
compound="C=C[Si](C)(C)O[Si](C)(C)C=C [1,3-diethenyl-1,1,3,3-tetramethyldisiloxane] + Fc1ccccc1" readout_type="mass density" measurement_unit=kg/m3 assay_result=974.59
compound="C=C[Si](C)(C)O[Si](C)(C)C=C [1,3-diethenyl-1,1,3,3-tetramethyldisiloxane] + O=[N+]([O-])c1ccccc1" readout_type="mass density" measurement_unit=kg/m3 assay_result=1111.83

###

- Protocol: xn = mol fraction of the nth substance listed
- Settings: 283.15 K; 101 kPa; Liquid; Vibrating tube method; x1 = 0.25
Readout Type: mass density (kg/m3)

molecule="C=C[Si](C)(C)O[Si](C)(C)C=C [1,3-diethenyl-1,1,3,3-tetramethyldisiloxane] + CCc1ccccc1" readout_type="mass density" assay_result=857.68
molecule="C=C[Si](C)(C)O[Si](C)(C)C=C [1,3-diethenyl-1,1,3,3-tetramethyldisiloxane] + Clc1ccccc1" readout_type="mass density" assay_result=997.1
molecule="C=C[Si](C)(C)O[Si](C)(C)C=C [1,3-diethenyl-1,1,3,3-tetramethyldisiloxane] + Fc1ccccc1" readout_type="mass density" assay_result=943.25
molecule="C=C[Si](C)(C)O[Si](C)(C)C=C [1,3-diethenyl-1,1,3,3-tetramethyldisiloxane] + O=[N+]([O-])c1ccccc1" readout_type="mass density" assay_result=1057.23

###

mass density reference
- Protocol: xn = mol fraction of the nth substance listed
- Settings: 293.15 K; 101 kPa; Liquid; Vibrating tube method; x1 = 0.6
Readout Type: mass density (kg/m3)

compound="C=C[Si](C)(C)O[Si](C)(C)C=C [1,3-diethenyl-1,1,3,3-tetramethyldisiloxane] + COc1ccccc1" measurement_unit=kg/m3 assay_result=860.09
compound="C=C[Si](C)(C)O[Si](C)(C)C=C [1,3-diethenyl-1,1,3,3-tetramethyldisiloxane] + CCc1ccccc1" measurement_unit=kg/m3 assay_result=829.22
compound="C=C[Si](C)(C)O[Si](C)(C)C=C [1,3-diethenyl-1,1,3,3-tetramethyldisiloxane] + Fc1ccccc1" measurement_unit=kg/m3 assay_result=859.45
compound="C=C[Si](C)(C)O[Si](C)(C)C=C [1,3-diethenyl-1,1,3,3-tetramethyldisiloxane] + Clc1ccccc1" measurement_unit=kg/m3 assay_result=884.19
